- Tested on: morningglory
- experimental-protocol: Test B pre/postemergence morningglory
- Format: in vivo, Ipomoea hederacea
- study-conditions: Rate 125 g/ha, Postemergence; scale 0 to 10, 0 is no effect, 10 is complete control
measurement-kind: Morningglory plant response rating

// known answers, use as guide
compound	Morningglory plant response rating
CC(C)N(C(=O)n1oc(=O)n(C(C)C(=O)N(C)C)c1=O)c1ccc(Cl)cc1 (stereo not drawn)	4
C=CC[Si](C)(C)Cn1c(=O)on(C(=O)N(c2ccc(F)cc2)C(C)C)c1=O	7

Reported Morningglory plant response rating (morningglory) for entry CC(C)N(C(=O)n1oc(=O)n(C2CCCCCC2)c1=O)C1=CCCCC1 is 1

Log: morningglory, compound CC(C)N(C(=O)n1oc(=O)n(CCC[Si](C)(C)C)c1=O)c1ccc(F)cc1 , Morningglory plant response rating = 7

Sample COC(=O)C(C)n1c(=O)on(C(=O)N(c2ccc(F)cc2F)C(C)C)c1=O (stereo not drawn) , system: morningglory. Its Morningglory plant response rating is 0

I looked up COC(OC)C(C)n1c(=O)on(C(=O)N(c2ccc(F)cc2F)C(C)C)c1=O (stereo not drawn) and its Morningglory plant response rating for morningglory was 3

====

Listing of entries alongside the reported Giant foxtail plant response rating.
- Tested on: giant foxtail
- experimental-protocol: Test B pre/postemergence giant foxtail
- Assay type: in vivo, Setaria faberii
- study-conditions: Preemergence, Rate 500 g/ha; scale 0 to 10, 0 is no effect, 10 is complete control
Just the number.

compound	Giant foxtail plant response rating
CC(C)N(C(=O)n1oc(=O)n(C(C)C(=O)N(C)C)c1=O)c1ccc(Cl)cc1 (stereo not drawn) [Compound 480]	10
CC(C)N(C(=O)n1oc(=O)n(C(C)C2CC2)c1=O)c1ccc(F)cc1 (stereo not drawn) [Compound 404]	10

Next:
// recorded Giant foxtail plant response rating for CC(C)N(C(=O)n1oc(=O)n(CNC(=O)c2ccccc2)c1=O)c1ccc(F)cc1 [Compound 445] : 9

====

- Test system: soybean
- experimental-protocol: Test B pre/postemergence soybean
- Format: in vivo, Glycine max
- study-conditions: Rate 250 g/ha, Postemergence; scale 0 to 10, 0 is no effect, 10 is complete control
- Method: […] At the same time, these crop and weed species were also treated with postemergence applications of test chemicals formulated in the same manner. […] Treated plants and controls were maintained in a greenhouse for twelve to sixteen days, after which all species were compared to controls and visually evaluated. […]
measurement-kind: Plant response rating, Soybean
Output spec: single numeric token, no unit.

Study these solved cases before continuing.
given-smiles	result-value
CC(C)Cn1c(=O)on(C(=O)N(c2ccc(F)cc2)C(C)C)c1=O	3
CCCn1c(=O)on(C(=O)N(c2ccc(Cl)cc2)C(C)C)c1=O	4
CC(C)N(C(=O)n1oc(=O)n(CC(F)(F)F)c1=O)c1ccc(F)cc1	3

Okay, now this compound:
GET /value?item= Cc1cnn(C)c1-n1c(=O)on(C(=O)N(c2ccc(F)cc2)C(C)C)c1=O &field=Plant response rating, Soybean returns 4

====

- System: sugar beet
- experimental-protocol: Test B pre/postemergence sugar beet
- Assay type: in vivo, Beta vulgaris
- study-conditions: Preemergence, Rate 500 g/ha; scale of 0 to 10 where 0 is no effect and 10 is complete control
measurement-kind: Sugarbeets plant response rating

Solved entries:
compound	target-system	Sugarbeets plant response rating
CC(C)N(C(=O)n1oc(=O)n(C2CC3CCC2C3)c1=O)c1ccc(F)cc1F (stereo not shown)	sugar beet	2
CCOC(=O)C=C(Cn1c(=O)on(C(=O)N(c2ccccc2)C(C)C)c1=O)OCC	sugar beet	3
CC(C)=CCn1c(=O)on(C(=O)N(c2ccc(Cl)cc2)C(C)C)c1=O	sugar beet	6

Now look at this entry.
GET /value?item= CC(=O)C(C)n1c(=O)on(C(=O)N(c2ccccc2)C(C)C)c1=O (stereo not shown) &field=Sugarbeets plant response rating returns 6
